System: 4T1
Test: % inhibition of 4T1 cell number vs DMSO control; higher = stronger growth inhibition
Conditions: 1 µM; 3 days; substrate: lung fibroblast-derived matrix
measurement.kind: % inhibition of 4T1 cell number (%)
Numbers only, in %.

Consider the worked cases shown below.
c1ccc(-c2n[nH]c3c2oc2ccccc23)cc1
-1.95
COc1cc2ncnc(Nc3ccc(Cl)cc3Cl)c2cc1OC
0.704
CC(C)n1cnc2c(NCc3ccccc3O)nc(NCCCO)nc21
-6.35

What does the data say about its % inhibition of 4T1 cell number? Entry: `CCOc1nc(NC(=O)Cc2cc(OC)ccc2OC)cc(N)c1C#N`
-17.8

====

Task for the reader: assign each of the following compounds its reported % inhibition of 4T1 cell number.
System: 4T1
Experiment: % inhibition of 4T1 cell number vs DMSO control; higher = stronger growth inhibition
Conditions: 1 µM; 3 days; substrate: gelatin
Numbers only, in %.

Consider the worked cases shown below.
NC(=O)Nc1sc(-c2ccccc2)cc1C(N)=O [IKK-2 Inhibitor VI]
-1.17
CC[C@H](CO)Nc1nc(NCc2ccccc2)c2ncn(C(C)C)c2n1 [Roscovitine]
53.1
Cn1sc(=O)n(Cc2ccccc2)c1=O [GSK-3b Inhibitor I]
10.3
Cc1nc(-c2ccccc2)c(-c2ccncc2)o1
13.3
O=C1C(Cl)=C(N2C(=O)CCC2=O)C(=O)c2ccccc21 [MEK Inhibitor II]
-13.5
O=C(Nc1cccc(Nc2nccc(Nc3cccc(C(F)(F)F)c3)n2)c1)C1CC1 [Aurora Kinase Inhibitor III]
74.5

Proceeding to the next compound to report its % inhibition of 4T1 cell number.
Test system 4T1; read-out % inhibition of 4T1 cell number; what value for `Cc1cc(C=C2C(=O)C=CC2=O)cc(C)c1O` ?
68.1

====

Test system: 4T1
Test: % inhibition of 4T1 cell number vs DMSO control; higher = stronger growth inhibition
Conditions: 1 µM; 3 days; substrate: gelatin
Task for the reader: assign each of the following compounds its reported % inhibition of 4T1 cell number.
Answers are plain numbers, in %.

CCCCCCOC(=O)[C@]1(O)C[C@@H]2O[C@@]1(C)n1c3ccccc3c3c4c(c5c6ccccc6n2c5c31)C(=O)NC4
-0.139
Cc1cc(Nc2nc(-c3ccccc3)nc3ccccc23)n[nH]1 [GSK-3 Inhibitor XIII]
-25.8
CS(=O)(=O)c1ccc(-c2nc(-c3ccc(F)cc3)c(-c3ccncc3)[nH]2)cc1
63

Provide % inhibition of 4T1 cell number values for the following items, in order.
1. COc1cc(OC)c(C=C2C(=O)Nc3ccccc32)c(OC)c1
2. c1nc2c(NC3CCCCC3)nc(Nc3ccc(N4CCOCC4)cc3)nc2[nH]1 [Reversine]
3. O=Nc1c(-c2c(O)[nH]c3cc(Br)ccc23)[nH]c2ccccc12 [GSK-3 Inhibitor IX]
4. CC[C@H](CO)Nc1nc(NCc2ccc(-c3ccccn3)cc2)c2ncn(C(C)C)c2n1 [CR8, (R)-Isomer]
5. COc1ccc(Cl)cc1NC(=O)Nc1cc(C)nc2ccccc12 [IGF-1R Inhibitor II]
6. O=[N+]([O-])c1ccc(-c2nc(-c3ccc(F)cc3)c(-c3ccncc3)[nH]2)cc1

1. 85.1
2. 89.5
3. -7.89
4. 98.7
5. -99
6. 12

====

Task for the reader: assign each of the following compounds its reported % inhibition of 4T1 cell number.
Test system: 4T1
Experiment: % inhibition of 4T1 cell number vs DMSO control; higher = stronger growth inhibition
Conditions: 1 µM; 3 days; substrate: mCAF1 fibroblast-derived matrix
Give bare numbers, in %.

O=C(c1ccccc1)c1ccc(N2CCOCC2)cc1O
54.5
Cn1cnc2cc3c(Nc4cccc(Br)c4)ncnc3cc21
-36.5

Provide % inhibition of 4T1 cell number values for the following items, in order.
1. COc1cc2ncnc(Nc3ccc(NC(=O)c4ccccc4)cc3)c2cc1OC
2. C[S+]([O-])c1ccc(-c2nc(-c3ccc(F)cc3)c(-c3ccncc3)[nH]2)cc1 (stereo not given)
3. O=C1NC(=O)/C(=C/c2ccc3c(c2)OC(F)(F)O3)S1

1: -30.6; 2: 14.9; 3: 5.87
